test-description: Cell Viability - LYMP2-017 (AID 972);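 also: cells exposed to compound for 24 hours at 37 °C; % is scaled to controls: 0 for no effect and ±100 for the full control effect; nearly all actives have a fitted effect of over 55% in size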
test-settings: LYMP2-017 lymphoblastoid cell viability; series mostly up to 92.2 µM
Results filed as inconclusive are left out. Activity calls are given as the source filed them. Calls follow the shape of the dose curve; as a rule, active = well fitted cell-killing curve with a large enough effect; inconclusive = small, poorly fitted or top-dose-only effect; inactive = flat fitted curve, though single readings scatter.
Form entry, call: pick from true (1) (active), false (0) (inactive)

Called result for "IC(I)I" false (0)

Then "CCCCCCCC(=O)O" ? false (0)

Then CC(O)CO (stereo not drawn) ? false (0)

---

tgt: Phospholipid hydroperoxide glutathione peroxidase GPX4 (Homo sapiens) (UniProt P36969)
Sequence (P36969 whole entry, looked up): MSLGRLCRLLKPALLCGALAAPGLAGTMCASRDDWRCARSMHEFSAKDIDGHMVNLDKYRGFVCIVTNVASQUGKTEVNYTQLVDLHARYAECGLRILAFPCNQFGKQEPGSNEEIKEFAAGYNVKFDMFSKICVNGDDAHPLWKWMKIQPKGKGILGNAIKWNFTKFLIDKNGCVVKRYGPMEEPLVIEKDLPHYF
test-description: Primary qHTS Assay for Inhibitors of Recombinant Selenoprotein Glutathione Peroxidase 4 (GPX4) (AID 1845192); also: % is scaled to controls: 0 for no effect and ±100 for the full control effect; nearly all actives have a fitted effect of over 65% in size
test-settings: recombinant GPX4, GR-coupled NADPH fluorescence, 15 min; series mostly up to 50 µM
Records with an inconclusive call do not appear. Activity calls are given as the source filed them. Calls follow the shape of the dose curve; as a rule, active = well fitted inhibition curve with a large enough effect; inconclusive = small, poorly fitted or top-dose-only effect; inactive = flat fitted curve, though single readings scatter.
property-measured: activity change, negative = inhibition

Given C[C@@H]1O[C@@H](O[C@H]2[C@H](OC(=O)C34CCC5(C)C(=CCC6C7(C)CC(O)C(O[C@@H]8O[C@H](C(=O)O)[C@@H](O)[C@H](O)[C@H]8O)C(C)(C(=O)O)C7CCC65C)C3CC(C)(C)CC4O)O[C@H](C)[C@@H](O)[C@@H]2O)[C@H](O)[C@@H](O[C@@H]2OC[C@](O)(CO)[C@H]2O[C@@H]2O[C@H](CO)[C@@H](O)[C@H](O)[C@H]2O)[C@H]1O (some centres not stated) , state its recorded activity change, negative = inhibition. -4.3% [at 9.73 µM] (inactive)

---

Test system: C33A
test-description: Primary qHTS to identify gynecologic anti-cancer compounds using libraries of approved drugs and bioactive compounds (AID 1345084); also: % is scaled to controls: 0 for no effect and ±100 for the full control effect; nearly all actives have a fitted effect of over 55% in size
test-settings: Gynecologic cancer cell panel viability, ATPlite luminescence, 48 h; series mostly up to 57.5 µM
Inconclusive results are not listed. Calls of active or inactive are those of the source. Calls come from the whole dose curve; as a rule, active = well fitted cell-killing curve with a large enough effect; inconclusive = small, poorly fitted or top-dose-only effect, or effect the other way; inactive = flat fitted curve, though single readings scatter. Where a SMILES comes first, the peptide text is derived from it.
property-measured: activity change, negative = cytotoxicity

A selection of reference data follows.
compound	tgt	property-measured	observed-result
O=C(/C=C/c1ccccc1)OCC1=CC[C@@H]2C(C(=O)O)=CO[C@@H](O[C@@H]3O[C@H](CO)[C@@H](O)[C@H](O)[C@H]3O)[C@H]12	C33A	activity change, negative = cytotoxicity	inactive
COC(=O)C12C(=O)C(C)=C(O)C1(C)C(C)=CC1C34CCC(OC3=O)C(C)(C)C4CCC12C (configuration not stated)	C33A	activity change, negative = cytotoxicity	inactive
CC1NC(=O)CNC(=O)C(C(C)C)NC(=O)C2CCCN2C(=O)C(C(C)C)NC(=O)C(Cc2c[nH]c3ccccc23)NC1=O (configuration not stated) (cyclo(GAWVPV); configuration not given here)	C33A	activity change, negative = cytotoxicity	inactive
OC[C@H]1O[C@@H](Oc2cc(O)cc(/C=C/c3ccc(O)cc3)c2)[C@H](O)[C@@H](O)[C@@H]1O	C33A	activity change, negative = cytotoxicity	inactive
CC1=CC(=O)CC(C)(CO[C@@H]2O[C@H](CO)[C@@H](O)[C@H](O)[C@H]2O)C1(O)/C=C/C(C)=C/C(=O)O (some centres not stated)	C33A	activity change, negative = cytotoxicity	inactive
CC(C)Nc1cc(-c2c[nH]c(C(=O)N[C@H](CO)c3cccc(Cl)c3)c2)c(Cl)cn1	C33A	activity change, negative = cytotoxicity	inactive

Now consider the entry below.
Given "O=C(c1ccccn1)c1cnn2c(-c3ccncc3)ccnc12" , state its recorded activity change, negative = cytotoxicity. inactive

---

Test system: CASKI
test-description: Primary qHTS to identify gynecologic anti-cancer compounds using libraries of approved drugs and bioactive compounds (AID 1345084); also: % is scaled to controls: 0 for no effect and ±100 for the full control effect; nearly all actives have a fitted effect of over 55% in size
test-settings: Gynecologic cancer cell panel viability, ATPlite luminescence, 48 h; series mostly up to 57.5 µM
Inconclusive results are not listed. The source made the active and inactive calls. The call rests on the fitted dose curve; in most records, active means well fitted cell-killing curve with a large enough effect; inconclusive means small, poorly fitted or top-dose-only effect, or effect the other way; inactive means flat fitted curve, though single readings scatter.
property-measured: activity change, negative = cytotoxicity

A selection of reference data follows.
molecule	property-measured	observed-result
C=C1[C@@H]2[C@H]3OC(=O)C(=C)[C@@H]3CC[C@@](C)(O)[C@@H]2C[C@@H]1O[C@@H]1O[C@H](CO)[C@@H](O)[C@H](O)[C@H]1O	activity change, negative = cytotoxicity	inactive
COc1cc(C2c3cc(O)c(OC)cc3CC(CO)C2CO)ccc1O (stereo not drawn)	activity change, negative = cytotoxicity	inactive
CCC(=O)NS(=O)(=O)c1ccc(-c2c(-c3ccccc3)noc2C)cc1	activity change, negative = cytotoxicity	inactive
C=C1C(OC(C)=O)C(=O)C2C(C)(C)C(OC(C)=O)CCC2(C)C1CC(OC(C)=O)/C(C)=C/COC(C)=O (stereo not drawn)	activity change, negative = cytotoxicity	inactive
O=C(O)CCc1cc2ccoc2cc1O[C@@H]1O[C@H](CO[C@@H]2OC[C@](O)(CO)[C@H]2O)[C@@H](O)[C@H](O)[C@H]1O	activity change, negative = cytotoxicity	inactive
COC1CCCC/C(C)=C/C2C=C(C)C(C)C3C(CC(C)C)NC(=O)C23C(=O)C1 (stereo not drawn)	activity change, negative = cytotoxicity	inactive
CC(C)C1(O[C@@H]2O[C@H](CO)[C@@H](O)[C@H](O)[C@H]2O)CC=C(CO)CC1 (stereo partly drawn)	activity change, negative = cytotoxicity	inactive
Cc1nnc(C(C)C)n1C1CC2CCC(C1)N2CCC(NC(=O)C1CCC(F)(F)CC1)c1ccccc1 (stereo not drawn)	activity change, negative = cytotoxicity	inactive
CC1(C)CCC(C)(C)c2cc([C@@H](O)C(=O)Nc3ccc(C(=O)O)cc3F)ccc21	activity change, negative = cytotoxicity	inactive
C=CCc1ccc(O[C@@H]2O[C@H](CO)[C@@H](O)[C@H](O)[C@H]2O)c(OC)c1	activity change, negative = cytotoxicity	inactive

// each molecule listed below needs its activity change, negative = cytotoxicity
1. C=C1CCC2C(OC(=O)C2(O)COC(C)=O)C2C(=C)C(O)CC12 (stereo not drawn)
2. COc1ccc2c(c1O)OC[C@H]1c3ccc(O)cc3O[C@@H]21
3. CC(=O)O[C@H]1C[C@@H]2[C@]3(CC[C@]4(C)[C@@H](C5(C)CCC(C(C)(C)O)O5)[C@@H](O)C[C@@]24C)C[C@@]32CC[C@H](O[C@@H]3OC[C@@H](O)[C@H](O)[C@H]3O)C(C)(C)[C@H]12 (stereo partly drawn)
4. CC(=O)OC[C@@]12[C@H](O)C[C@@H](C)[C@]3(C[C@@H](c4ccoc4)OC3=O)[C@H]1C[C@H](O)C[C@]21CO1
5. O=C(/C=C/c1ccc(O)cc1)OC[C@H]1O[C@@H](OC(=O)/C=C/c2ccccc2)[C@H](O)[C@@H](O)[C@@H]1O
6. C[C@@H]1O[C@@H](O[C@H]2[C@H](OC(=O)C34CCC(C)(C)CC3C3=CCC5C6(C)CC(O)C(O[C@@H]7O[C@H](CO)[C@@H](O)[C@H](O)[C@H]7O)C(C)(C(=O)O)C6CCC5(C)C3(CO)CC4)O[C@H](C)[C@H](O)[C@@H]2O)[C@H](O)[C@H](O)[C@H]1O[C@@H]1OC[C@@H](O)[C@H](O)[C@H]1O (stereo partly drawn)

inactive
inactive
inactive
inactive
inactive
8.6% [at 11.6 µM] (inactive)

---

test-description: Primary redox qHTS assay for identification of artifact compounds. (AID 1845223);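 also: 0% = DMSO and 100% = reference compound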
test-settings: Amplex Red/HRP redox cycling with DTT, fluorescence; series mostly up to 53.8 µM
Inconclusive results are not listed. Calls of active or inactive are those of the source. Calls follow the shape of the dose curve; as a rule, active = well fitted activation curve with a large enough effect; inconclusive = small, poorly fitted or top-dose-only effect; inactive = flat fitted curve, though single readings scatter.
property-measured: redox activity (% of DA3003)

A selection of reference data follows.
compound	redox activity (% of DA3003)
O=C(CCCCc1ccc2ccccc2c1)C(F)(F)F	inactive
O=S(=O)(NC1CCNCC1)c1cc(S(=O)(=O)c2ccccc2)ccc1C(F)(F)F	inactive
OCc1ccccc1O[C@@H]1O[C@H](CO)[C@@H](O)[C@H](O)[C@H]1O	inactive
COc1cc(C(=O)OC[C@H]2O[C@H](O[C@@]3(CO)O[C@@H](CO)[C@H](O)[C@H]3O)[C@H](O)[C@@H](O)[C@@H]2O)ccc1O	inactive
CC(C)(C)NCc1cc(Nc2ccnc3cc(Cl)ccc23)c2c(c1O)CCCC2	-4.12% [at 0.461 µM] (inactive)
COc1cc(C2c3cc(O)c(OC)cc3CC(CO)C2CO)ccc1O (stereo not given)	inactive

// each compound listed below needs its redox activity (% of DA3003)
1. C[C@@H]1O[C@@H](O[C@H]2[C@H](O[C@H]3[C@H](O[C@H]4CC[C@@]5(C=O)C(CC[C@]6(C)C5CC=C5C7CC(C)(C)C[C@@H](O)[C@]7(C)CC[C@]56C)C4(C)C)O[C@H](C(=O)O)[C@@H](O)[C@@H]3O)OC[C@@H](O)[C@@H]2O)[C@H](O)[C@H](O)[C@H]1O (stereo not given in full)
2. CC1CCC23COC(=O)C2=CC(O)CC3C1(C)CCC1=CC(=O)OC1O (stereo not given)
3. CC1NC(=O)C(Cc2c[nH]c3ccccc23)NC1=O (stereo not given)
4. CCC(NC(=O)CC(NC(=O)C(CO)NC(=O)C(CC)NC(=O)c1ccc[nH]1)c1ccccc1)C(=O)O (stereo not given)

["8.98% [at 11.5 µM] (inactive)", "inactive", "inactive", "inactive"]
